Source listed as ChEMBL document CHEMBL5154799.

# TEST DETAILS: Cytotoxicity against human MCF-10A cells assessed as reduction in cell viability
# Format: toxicity, cell-based
VALUE TYPE: IC50 (nM)
Expressed in nM, but write only the number.

Look up IC50 of "C=C(c1cc(OC)c(OC)c(OC)c1)c1ccc(OC)c(O)c1NC(=O)CO" and report it.
540

###

# TEST DETAILS: Cytotoxicity against HLF cells assessed as reduction in cell viability
# Format: toxicity, cell-based
# COND: human
VALUE TYPE: pIC50
Remember the convention: pIC50 equals -log10 of concentration in molar.

Look up pIC50 of "C=C(c1cc(OC)c(OC)c(OC)c1)c1ccc(OC)c(O)c1NC(=O)CO" and report it.
5.88
